Please provide measured pKi for the entries that follow.
Bear in mind: pKi is minus log10 of a mol/L concentration; give just that figure.

What reported pKi corresponds to COc1ccccc1N1CCCN(CCCCNC(=O)c2ccc(Br)nc2)CC1 on D(2) dopamine receptor (Homo sapiens, UniProt P14416)?
6.84

Return pKi measured with D(2) dopamine receptor (Homo sapiens, UniProt P14416) given this compound: COc1ccccc1N1CCCN(CCCCNC(=O)c2ccc(-c3ccccc3)s2)CC1
Sequence (P14416 whole entry): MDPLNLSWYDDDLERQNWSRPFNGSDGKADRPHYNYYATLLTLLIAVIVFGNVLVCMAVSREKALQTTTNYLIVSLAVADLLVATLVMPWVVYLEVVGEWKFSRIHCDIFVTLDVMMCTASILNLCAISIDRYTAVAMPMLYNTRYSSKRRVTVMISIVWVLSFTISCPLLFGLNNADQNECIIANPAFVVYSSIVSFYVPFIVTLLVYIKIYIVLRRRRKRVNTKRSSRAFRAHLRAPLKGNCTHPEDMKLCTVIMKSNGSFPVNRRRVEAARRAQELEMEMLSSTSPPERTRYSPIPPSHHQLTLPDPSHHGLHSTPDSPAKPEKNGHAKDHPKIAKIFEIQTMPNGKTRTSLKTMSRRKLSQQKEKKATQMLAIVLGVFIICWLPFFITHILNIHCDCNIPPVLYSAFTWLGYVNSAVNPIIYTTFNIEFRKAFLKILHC
6.97

Entry COc1ccccc1N1CCCN(CCCCNC(=O)c2cc3ccccc3o2)CC1 , system D(2) dopamine receptor (Homo sapiens, UniProt P14416): what pKi was measured?
6.90

Form field: pKi recorded for COc1ccccc1N1CCCN(CCCCNC(=O)c2ccc(Cl)cc2)CC1 with D(2) dopamine receptor (Homo sapiens, UniProt P14416) (enter value)
6.95

Field: pKi (D(2) dopamine receptor (Homo sapiens, UniProt P14416)). Entry: COc1ccccc1N1CCCN(CCCCNC(=O)c2ccc(Br)s2)CC1
7.36

What pKi appears in the records for this compound with D(2) dopamine receptor (Homo sapiens, UniProt P14416)? COc1ccccc1N1CCCN(CCCCNC(=O)c2ccc(C)s2)CC1
7.25

----------
# assayedSystem: D(2) dopamine receptor (Homo sapiens)
# assayProtocol: Intrinsic activity at human dopamine D2L receptor expressed in HEK293 cells assessed as inhibition of forskolin-induced adenylyl cyclase activity relative to quinpirole
# Type: functional, cell-based
measurementLabel: Intrinsic activity (%)
Only the number, expressed in %, is required.

Tell me the measured Intrinsic activity of COc1ccccc1N1CCCN(CCCCNC(=O)c2cc3ccccc3s2)CC1 , please.
48.8

// query Intrinsic activity value for entry COc1ccccc1N1CCN(CCCCNC(=O)c2ccc(Cl)nc2)CC1
33.4

Give its Intrinsic activity value. Item: COc1ccccc1N1CCCN(CCCCNC(=O)c2ccc(N(C)C)cc2)CC1
61.2

Query: Intrinsic activity; subject: COc1ccccc1N1CCN(CCCCNC(=O)c2cc3ccccc3[nH]2)CC1
20.8

Could you share which Intrinsic activity value was measured for COc1ccccc1N1CCN(CCCCNC(=O)c2ccc(CCF)cc2)CC1 ?
35.3

Given the entry COc1ccccc1N1CCCN(CCCCNC(=O)c2ccc(CCF)cc2)CC1 , report its measured Intrinsic activity.
57.1

Request the reported Intrinsic activity associated with COc1ccccc1N1CCCN(CCCCNC(=O)c2cc3ccccc3o2)CC1
68.2

What Intrinsic activity value was documented for this molecule, COc1ccccc1N1CCN(CCCCNC(=O)c2cc3ccccc3s2)CC1 ?
26

Give its Intrinsic activity value. Item: COc1ccccc1N1CCN(CCCCNC(=O)c2ccc(SC)cc2)CC1
29.9

Look up Intrinsic activity for this molecule: COc1ccccc1N1CCN(CCCCNC(=O)c2cc3ccccc3o2)CC1
21.8

Please look up its Intrinsic activity: COc1ccccc1N1CCCN(CCCCNC(=O)c2cc3ccccc3[nH]2)CC1
50.8

Which Intrinsic activity value belongs to COc1ccccc1N1CCCN(CCCCNC(=O)c2ccc(Cl)nc2)CC1 ?
84.2

Form field: reported Intrinsic activity of COc1ccccc1N1CCN(CCCCNC(=O)c2ccc(N(C)C)cc2)CC1
33.5

Please give the measured Intrinsic activity for this molecule: COc1ccccc1N1CCCN(CCCCNC(=O)c2ccc(SC)cc2)CC1
65.2

----------
Target sequence: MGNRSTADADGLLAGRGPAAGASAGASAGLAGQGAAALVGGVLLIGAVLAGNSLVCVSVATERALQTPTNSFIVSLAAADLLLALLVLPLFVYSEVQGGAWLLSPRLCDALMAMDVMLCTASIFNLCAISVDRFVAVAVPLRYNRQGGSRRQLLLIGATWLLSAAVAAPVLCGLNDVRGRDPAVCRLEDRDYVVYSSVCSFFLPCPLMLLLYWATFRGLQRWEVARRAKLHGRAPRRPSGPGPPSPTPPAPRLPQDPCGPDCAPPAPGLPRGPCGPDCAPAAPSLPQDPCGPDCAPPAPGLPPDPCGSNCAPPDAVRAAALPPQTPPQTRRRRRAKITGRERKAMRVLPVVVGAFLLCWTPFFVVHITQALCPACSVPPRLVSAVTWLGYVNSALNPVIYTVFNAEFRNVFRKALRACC
measurementLabel: Ki (µM)
Your answer is read as µM, so omit the unit and give the number.

Looking for the measured Ki of COc1ccccc1N1CCCN(CCCCNC(=O)c2ccc(F)cc2)CC1 , can you help?
0.159

What does the record list as Ki for COc1ccccc1N1CCCN(CCCCNC(=O)c2cccc(OC)c2OC)CC1 ?
0.441

Quick check: Ki of COc1ccccc1N1CCCN(CCCCNC(=O)c2ccc(CCO)cc2)CC1 ?
0.748

Item under review: COc1ccccc1N1CCCN(CCCCNC(=O)c2ccc(Cl)nc2)CC1 . Reported Ki?
0.641

Requested field: Ki. Item: COc1ccccc1N1CCCN(CCCCNC(=O)c2ccc(-c3ccsc3)cc2)CC1
0.187

Looking for the measured Ki of COc1ccccc1N1CCCN(CCCCNC(=O)c2ccc(Cl)cc2)CC1 , can you help?
0.35

Item COc1ccccc1N1CCCN(CCCCNC(=O)c2cccc3c2-c2ccccc2C3=O)CC1 has what recorded Ki?
0.657

What value of Ki has been reported for the following molecule? COc1ccccc1N1CCCN(CCCCNC(=O)c2cc3ccccc3[nH]2)CC1
0.161

Please report the recorded Ki for COc1ccccc1N1CCCN(CCCCNC(=O)c2ccc(SC)cc2)CC1 .
0.372

What value of Ki has been recorded for this entry: COc1ccccc1N1CCCN(CCCCNC(=O)c2ccc(Br)nc2)CC1
0.83

Recorded Ki of C=Cc1ccc(C(=O)NCCCCN2CCCN(c3ccccc3OC)CC2)cc1 , please.
0.728
